# Percent Effect per record follows
- Experimental target: Tyrosyl-tRNA synthetase, putative (Trypanosoma cruzi (strain CL Brener)) (UniProt Q4DSP6)
- Sequence (Q4DSP6 as listed by the source): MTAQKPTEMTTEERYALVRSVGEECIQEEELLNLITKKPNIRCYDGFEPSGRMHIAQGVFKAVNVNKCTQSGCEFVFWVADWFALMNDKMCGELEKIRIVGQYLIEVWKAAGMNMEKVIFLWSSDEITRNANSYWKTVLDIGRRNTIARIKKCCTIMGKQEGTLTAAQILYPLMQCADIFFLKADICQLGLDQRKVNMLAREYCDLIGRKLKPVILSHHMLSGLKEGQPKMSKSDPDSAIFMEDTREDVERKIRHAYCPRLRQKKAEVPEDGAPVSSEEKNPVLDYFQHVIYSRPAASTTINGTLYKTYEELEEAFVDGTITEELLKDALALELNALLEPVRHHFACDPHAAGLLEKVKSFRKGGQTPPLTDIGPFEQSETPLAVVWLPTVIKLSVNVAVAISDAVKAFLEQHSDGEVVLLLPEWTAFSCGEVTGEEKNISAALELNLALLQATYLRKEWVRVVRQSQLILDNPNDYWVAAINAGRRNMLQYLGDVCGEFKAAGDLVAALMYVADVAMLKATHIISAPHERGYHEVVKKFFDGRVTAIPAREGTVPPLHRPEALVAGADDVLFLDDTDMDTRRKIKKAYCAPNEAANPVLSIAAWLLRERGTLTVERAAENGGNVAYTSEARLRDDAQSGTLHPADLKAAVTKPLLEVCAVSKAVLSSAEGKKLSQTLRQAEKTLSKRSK
- Measurement notes: Trypanosoma cruzi tyrosyl tRNA synthetase (TcYRS) _High Tyrosine SOP
- Format: functional
- Parameters: scale not given: in the data most compounds retested in dose-response had high values
- Measurement setup: 30 µM
Value kind: Percent Effect (%)

| Compound | Measurement |
| --- | --- |
| CC(CCN1CCn2nc(CNC(=O)N(C)C)cc2C1)c1ccccc1 (stereo unspecified) | 6.88 |
| CN(C)CCO[C@H]1CN(Cc2cccc(C#N)c2)[C@@H]2COC[C@H]12 | 6.25 |
| CCN(C(=O)CN(C)C(c1cccc(F)c1)c1ccccn1)C1CC1 (stereo unspecified) | 6.8 |
| Cc1nc(C)n(C2CCCN(C(=O)c3ccc(NC4CC4)nc3)C2)n1 (stereo unspecified) | 1.98 |
| Cc1nc(COCc2cnc3n2CCN(C2CCC2)C3C)cs1 (stereo unspecified) | 3.12 |
| Cc1ccccc1CS(=O)(=O)CC(=O)NC1CCCCNC1=O (stereo unspecified) | 4.85 |
| Cc1cnn(CC2CCCCN2C(=O)c2ccc3nnc(C)n3c2)c1 (stereo unspecified) | 5.71 |
| Cc1nc(C(C)(C)NC(=O)Nc2ccccc2)no1 | -2.15 |
| O=C(c1cccnc1O)N(Cc1ccsc1)CC1CCCO1 (stereo unspecified) | 5.82 |
| Cc1ncc(C(=O)N2C[C@H]3CC[C@@H]2CN(S(=O)(=O)N(C)C)C3)c(C)n1 | 7.1 |
| CS(=O)(=O)CCC(=O)Nc1cnn(-c2ccccc2Cl)c1 | 7.92 |

* * *

Let's look at some molecules and their measured Percent Effect.
- Experimental target: Arginase-2, mitochondrial (Homo sapiens)
- Sequence (whole entry): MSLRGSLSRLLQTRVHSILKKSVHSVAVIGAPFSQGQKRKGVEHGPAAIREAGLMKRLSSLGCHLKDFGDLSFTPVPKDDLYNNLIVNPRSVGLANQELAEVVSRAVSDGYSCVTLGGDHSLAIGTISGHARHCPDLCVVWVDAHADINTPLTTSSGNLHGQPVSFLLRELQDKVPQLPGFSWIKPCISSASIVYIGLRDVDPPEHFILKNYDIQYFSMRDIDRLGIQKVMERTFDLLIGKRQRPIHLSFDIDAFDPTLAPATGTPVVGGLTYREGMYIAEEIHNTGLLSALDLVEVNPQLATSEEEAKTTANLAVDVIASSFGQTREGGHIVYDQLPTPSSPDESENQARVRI
- Measurement notes: in vitro enzyme assay to detect the production of urea directly proportional to the activity of Arginase II
- Format: functional
- Set-up: scale not given: in the data most compounds retested in dose-response had high values
- Measurement setup: 33.3 µM

| Molecule | Experimental target | Percent Effect / % |
| --- | --- | --- |
| Cc1nnc2n1CCN(Cc1csc(Cc3ccccc3)n1)C2 | Arginase-2, mitochondrial (Homo sapiens) | 4.62 |
| COCCC1COC2(CCN(C(=O)c3ccco3)CC2)C1 (configuration not stated) | Arginase-2, mitochondrial (Homo sapiens) | 3.5 |
| CCCS(=O)(=O)NCC1CCOc2ccccc2C1 (configuration not stated) | Arginase-2, mitochondrial (Homo sapiens) | 17.9 |
| COc1ccc2c(c1)CN(Cc1nc3c(cnn3C)c(=O)[nH]1)CC2 | Arginase-2, mitochondrial (Homo sapiens) | 2.66 |
| CC(C)NC(=O)N1CCC2(CC(C(=O)NCc3cccnc3)=NO2)C1 (configuration not stated) | Arginase-2, mitochondrial (Homo sapiens) | -2.69 |
| CCCS(=O)(=O)N1C[C@H]2OC(=O)N(CCc3cccc(Cl)c3)[C@H]2C1 | Arginase-2, mitochondrial (Homo sapiens) | -2.08 |
| O=C(CN1CCCC1Cn1cncn1)Nc1cccnc1 (configuration not stated) | Arginase-2, mitochondrial (Homo sapiens) | 4.86 |
| Cc1cc(C)c2nc(CN3CC[C@@H](O)C3)cc(O)c2c1 | Arginase-2, mitochondrial (Homo sapiens) | -3.81 |
| OCCC1CN(C2CCC2)CCN1C1CCCC1 (configuration not stated) | Arginase-2, mitochondrial (Homo sapiens) | -1.77 |
| Cc1nn(C)c(N(C)C)c1CNCc1cccc(CN(C)C(C)C)c1 | Arginase-2, mitochondrial (Homo sapiens) | 10.7 |
| COc1ccccc1C1(C(=O)NCCN2CCOCC2)CCOCC1 | Arginase-2, mitochondrial (Homo sapiens) | -2.81 |
| O=C(NC[C@H]1OC[C@@H]2CCN(C(=O)c3ccco3)C[C@@H]21)C1CC1 | Arginase-2, mitochondrial (Homo sapiens) | 5.21 |
